Target: Them1 START domain (Homo sapiens)
Sequence (Q8WXI4 339-594 isoform Q8WXI4-2): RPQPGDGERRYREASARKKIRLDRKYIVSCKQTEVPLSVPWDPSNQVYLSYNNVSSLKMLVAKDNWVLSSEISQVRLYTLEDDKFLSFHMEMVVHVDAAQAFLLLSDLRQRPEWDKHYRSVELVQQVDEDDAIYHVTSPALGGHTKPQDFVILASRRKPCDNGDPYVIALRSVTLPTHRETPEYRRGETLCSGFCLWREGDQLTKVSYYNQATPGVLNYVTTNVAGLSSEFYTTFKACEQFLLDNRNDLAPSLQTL
Assay: Microscale thermophoresis binding, START domain
Details: in words
measure: binding affinity to the START domain compared to the parent U1 compound

                                   molecule      result
0  CCOC(=O)C1CCN(C(c2cccs2)c2c(C)[nH]c3ccccc23)CC1 (stereo not shown) [Compound U7]  comparable
1  CCOC(=O)N1CCN(C(c2ccc(C)s2)c2c(C)[nH]c3ccccc23)CC1 (stereo not shown) [Compound U16]  comparable
2  Cc1[nH]c2ccccc2c1C(c1cccs1)N1CCN(C(=O)c2ccccc2)CC1 (stereo not shown) [Compound U13]  comparable
